I'd appreciate it if you could supply IC50 values for the items below.
tested on: A20; experiment: Cytostatic activity against mouse A20 cells after 24 hrs by CCK-8 assay; assay type: functional, cell-based; details: Mus musculus, A20, 24 h
Non-standard residues stand in square brackets, D forms with d. Residues, ends and D or L forms follow the SMILES beside them. Dip = N[C@H](C(=O)O)C(c1ccccc1)c1ccccc1; Ahx = NCCCCCC(=O)O; AEA = NCCOCC(=O)O
Just the number plus its unit, please.

# IC50 lookup, item NCCCCCC(=O)N[C@@H](CCCCN)C(=O)N[C@@H](CCCCN)C(=O)N[C@@H](Cc1c[nH]c2ccccc12)C(=O)N[C@@H](Cc1c[nH]c2ccccc12)C(=O)N[C@@H](CCCCN)C(=O)N[C@@H](CCCCN)C(=O)N[C@@H](Cc1c[nH]c2ccccc12)C(=O)N[C@H](C(=O)N[C@@H](CCCCN)C(N)=O)C(c1ccccc1)c1ccccc1 (H-[Ahx]KKWWKKW[Dip]K-NH2)
6.4 µM

# IC50 lookup, item NCCCC[C@H](NC(=O)[C@@H](NC(=O)[C@H](Cc1c[nH]c2ccccc12)NC(=O)[C@H](CCCCN)NC(=O)[C@H](CCCCN)NC(=O)[C@H](Cc1c[nH]c2ccccc12)NC(=O)[C@H](Cc1c[nH]c2ccccc12)NC(=O)[C@H](CCCCN)NC(=O)[C@H](CCCCN)NC(=O)COCCN)C(c1ccccc1)c1ccccc1)C(N)=O (H-[AEA]KKWWKKW[Dip]K-NH2)
16.4 µM

# IC50 lookup, item CC[C@@]1(OC(=O)CCC(=O)NCCCC[C@H](NC(=O)CCC(=O)O[C@]2(CC)C(=O)OCc3c2cc2n(c3=O)Cc3cc4ccccc4nc3-2)C(=O)NCCOCCOCC(=O)N[C@@H](CCCCN)C(=O)N[C@@H](CCCCN)C(=O)N[C@@H](Cc2c[nH]c3ccccc23)C(=O)N[C@@H](Cc2c[nH]c3ccccc23)C(=O)N[C@@H](CCCCN)C(=O)N[C@@H](CCCCN)C(=O)N[C@@H](Cc2c[nH]c3ccccc23)C(=O)N[C@H](C(=O)N[C@@H](CCCCN)C(N)=O)C(c2ccccc2)c2ccccc2)C(=O)OCc2c1cc1n(c2=O)Cc2cc3ccccc3nc2-1
4.1 µM

# IC50 lookup, item CC[C@@]1(O)C(=O)OCc2c1cc1n(c2=O)Cc2cc3ccccc3nc2-1
179 µM
